target: ZDHHC5 (UniProt Q9C0B5); assay: log2 fold change, soluble protein after heating vs DMSO (PISA); higher = thermal stabilisation; K562 cells, 10 uM, 30 min; active = over 0.2 and 3.5 SD of the protein, either way, in both replicates (recomputed)
Sequence (Q9C0B5 whole entry, looked up): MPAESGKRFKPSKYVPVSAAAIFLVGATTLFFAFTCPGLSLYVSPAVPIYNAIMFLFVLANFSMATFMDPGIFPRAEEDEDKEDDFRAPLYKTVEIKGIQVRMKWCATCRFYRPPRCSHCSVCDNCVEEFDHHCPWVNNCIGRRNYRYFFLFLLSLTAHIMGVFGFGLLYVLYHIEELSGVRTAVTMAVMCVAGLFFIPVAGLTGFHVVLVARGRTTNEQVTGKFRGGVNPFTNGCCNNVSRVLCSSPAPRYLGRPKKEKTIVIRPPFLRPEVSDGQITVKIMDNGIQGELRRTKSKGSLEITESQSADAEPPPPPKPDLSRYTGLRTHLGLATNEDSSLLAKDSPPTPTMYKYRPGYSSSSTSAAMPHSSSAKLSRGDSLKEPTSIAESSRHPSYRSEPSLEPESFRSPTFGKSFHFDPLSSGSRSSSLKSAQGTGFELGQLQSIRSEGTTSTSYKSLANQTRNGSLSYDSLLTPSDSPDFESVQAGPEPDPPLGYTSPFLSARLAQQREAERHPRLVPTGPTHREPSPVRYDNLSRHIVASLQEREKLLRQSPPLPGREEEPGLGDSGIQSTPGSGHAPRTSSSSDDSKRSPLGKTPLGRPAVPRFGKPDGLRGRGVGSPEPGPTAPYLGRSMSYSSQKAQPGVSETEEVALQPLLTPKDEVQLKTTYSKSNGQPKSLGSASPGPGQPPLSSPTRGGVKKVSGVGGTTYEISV
Of roughly 7,900 targets only a part is listed; those with a hit were picked by preference. About 0.6% of all pairs of compound and target were hits.
Criterion: log2 fold change meeting or surpassing -0.009. Met: 1 (yes). Not met: 0 (no).

compoundstructure=Cc1ccc2c(=O)c3ccccc3n(CCCN)c2c1C labelclass="1 (yes)"
compoundstructure=CS(=O)(=O)CCNCc1ccc(-c2ccc3ncnc(Nc4ccc(OCc5cccc(F)c5)c(Cl)c4)c3c2)o1 labelclass="0 (no)"
compoundstructure=C[C@@H](N)c1ccc(C(=O)Nc2ccnc3[nH]ccc23)cc1 labelclass="1 (yes)"
compoundstructure=COc1cc(C(=O)O)ccc1NC(=O)[C@@H]1N[C@@H](CC(C)(C)C)[C@](C#N)(c2ccc(Cl)cc2F)[C@H]1c1cccc(Cl)c1F labelclass="0 (no)"
compoundstructure=CC[C@@H]1C(=O)N(C)c2cnc(Nc3ccc(C(=O)N[C@H]4CC[C@H](N5CCN(CC6CC6)CC5)CC4)cc3OC)nc2N1C(C)C labelclass="1 (yes)"
compoundstructure=NC(=O)Nc1cc(-c2cccc(F)c2)sc1C(=O)N[C@H]1CCCNC1 labelclass="0 (no)"
compoundstructure=NC1(c2ccc(-c3nc4ccn5c(=O)[nH]nc5c4cc3-c3ccccc3)cc2)CCC1 labelclass="0 (no)"
compoundstructure=Cn1cncc1[C@@](N)(c1ccc(Cl)cc1)c1ccc2c(c1)c(-c1cccc(Cl)c1)cc(=O)n2C labelclass="1 (yes)"
compoundstructure=COc1cc2ncnc(Nc3ccc(F)c(Cl)c3)c2cc1OCCCN1CCOCC1 labelclass="1 (yes)"
compoundstructure=Fc1ccc(Cl)cc1-c1nc(Nc2ccncc2)c2nccnc2n1 labelclass="1 (yes)"
compoundstructure=CC(=O)c1cnc2ccc(-c3cc(Cl)c(O)c(Cl)c3)nc2c1N[C@H]1CC[C@H](CN(C)C)CC1 labelclass="0 (no)"
compoundstructure=CC(C)(O)CC(=O)NCCn1ccc2ncnc(Nc3ccc(Oc4cccc(C(F)(F)F)c4)c(Cl)c3)c21 labelclass="1 (yes)"
compoundstructure=CC(C)(C)Cn1c(N)nc2ccc(-c3[nH]c(C(C)(C)C)nc3-c3ccc(F)cc3)nc21 labelclass="1 (yes)"
compoundstructure=COC(=O)[C@H](CCSC)NC(=O)c1ccc(NC[C@@H](N)CS)cc1-c1ccccc1 labelclass="1 (yes)"
compoundstructure=Cc1cc(SCc2sc(-c3ccc(C(F)(F)F)cc3)nc2C)ccc1OCC(=O)O labelclass="0 (no)"
compoundstructure=NC(=O)c1cnc(N[C@@H]2CCCC[C@@H]2N)nc1Nc1cccc(-n2nccn2)c1 labelclass="0 (no)"
compoundstructure=c1cn2cc(-c3ccc4cn[nH]c4c3)nc(Nc3ccc(N4CCOCC4)cc3)c2n1 labelclass="1 (yes)"
compoundstructure=CC[C@@H]1C(=O)N(C)c2cnc(Nc3ccc(C(=O)NC4CCN(C)CC4)cc3OC)nc2N1C1CCCC1 labelclass="1 (yes)"
compoundstructure=Cc1ccc(NC(=O)c2cccc(C(C)(C)C#N)c2)cc1Nc1ccc2ncn(C)c(=O)c2c1 labelclass="1 (yes)"
compoundstructure=CCCS(=O)(=O)Nc1ccc(F)c(C(=O)c2c[nH]c3ncc(-c4ccc(Cl)cc4)cc23)c1F labelclass="0 (no)"
compoundstructure=CN(C)CC(=O)Nc1ccc2[nH]c(=O)c3ccccc3c2c1 labelclass="0 (no)"
compoundstructure=O=C1NC(=NCc2cccs2)S/C1=C\c1ccc2ncccc2c1 labelclass="1 (yes)"
compoundstructure=C#Cc1cccc(Nc2ncnc3cc(OCCOC)c(OCCOC)cc23)c1 labelclass="1 (yes)"
compoundstructure=Cc1cc(Nc2cc(CN3CCOCC3)c3nc(C)c(Cc4ccc(Cl)cc4F)n3n2)n[nH]1 labelclass="0 (no)"
compoundstructure=COc1cccc2cc(-c3nc([C@H]4CC[C@H](C(=O)O)CC4)n4ncnc(N)c34)[nH]c12 labelclass="1 (yes)"
compoundstructure=O=C(Nc1nc2ccccc2n1CCN1CCOCC1)c1cccc([N+](=O)[O-])c1 labelclass="0 (no)"
compoundstructure=Cc1ccc(C(=O)N(CCCN)[C@@H](c2nc3cc(Cl)ccc3c(=O)n2Cc2ccccc2)C(C)C)cc1 labelclass="0 (no)"
